Origin of the recorded values: paper PMC5540273

Measured %Inh, listed per entry for reference.
# System: JAK1(JH2domain-pseudokinase)
# RECORDED CONDITIONS: concentration: 1 μM, replicates: in singlicate; n = 1;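 further: KINOMEscan kinase panel screen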
The reply should be a number in %, with the unit left off.

compound="Cc1ccc(NC(=O)c2ccnc(N3CCCCC3)c2)cc1-c1ccc(C(=O)NCC2CC2)cc1 [GW775610]" unit_of_measurement=% result_value=0

Exam item: Specify measured %Inh for Cl.Cl.NC(CNC(=O)c1cc(Br)c(-c2ccnc3[nH]ccc23)s1)c1ccccc1 (centres unmarked) [GSK1322949] .
Marked response: 0

---

# System: IRAK1
# RECORDED CONDITIONS: concentration: 1 μM, replicates: in singlicate; n = 1
Recorded %Inh by entry
# number only, unit % dropped from output

Example compounds with recorded %Inh:
smiles_representation=COc1ccc(C2=C(Nc3cccc(O)c3)C(=O)NC2=O)cc1 assay_target=IRAK1 result_value=60
smiles_representation=CNc1nccc(-c2ccc3c(N)n[nH]c3c2)n1 assay_target=IRAK1 result_value=49
smiles_representation=CC(C)c1nc(-c2ccc(F)c(NS(=O)(=O)c3c(F)cccc3F)c2)c(-c2ccnc(Nc3ccc(N4CCOCC4)nc3)n2)s1 assay_target=IRAK1 result_value=0
smiles_representation=Nc1cccc(-c2ccc3c(N)n[nH]c3c2)c1 assay_target=IRAK1 result_value=10

Exam item: For the compound Cc1ccccc1CC(=O)N1CCc2cc(-c3cn(C)c4ncnc(N)c34)ccc21 , report %Inh.
Marked response: 0

Exam item: Provide only the value of recorded %Inh for Cc1cc(-c2c(-c3ccc(F)cc3)ncn2CCCN2CCOCC2)nc(N)n1
Marked response: 0

Exam item: Give the value of %Inh reported for the following: CC(C)(C)c1ccc(C(=O)Nc2cn3cc(-n4ccnc4)ccc3n2)cc1
Marked response: 21

Exam item: Find the measured %Inh of CC(C)c1nc(-c2cccc(NS(=O)(=O)c3c(F)cccc3F)c2)c(-c2ccnc(Nc3ccc(N4CCOCC4)nc3)n2)s1.Cl and report it.
Marked response: 0

Exam item: // fetch %Inh given entry O=C(O)C(F)(F)F.O=c1[nH]ccc2nc(N[C@@H]3CCNC3)nc(Nc3ccc4c(c3)S(=O)(=O)CC4)c12
Marked response: 98.4

Exam item: Please look at this compound and report its %Inh: Cn1cc(-c2cnc(N)c3c(-c4ccc5c(c4)CCN5C(=O)Cc4ccccc4)csc23)cn1
Marked response: 0

Exam item: Supply recorded %Inh for Fc1cc(Cl)ccc1Nc1ccnc2cc(-c3ccc(CN4CCSCC4)o3)ccc12 here.
Marked response: 18

Exam item: Respond only with %Inh recorded for COc1ccc(NC(=O)c2ccoc2)cc1-c1ccc(C(=O)NCC2CC2)cc1
Marked response: 6

Exam item: Tell us which %Inh value is on record for Cl.N#CCc1ccc(Nc2nccc(Nc3ccc(Oc4ccccc4)cc3)n2)cc1
Marked response: 42

Exam item: Report measured %Inh; entry is Cc1cccc(Nc2nc(N[C@H]3CCCC[C@H]3N)ncc2C(N)=O)c1.Cl
Marked response: 88

Exam item: Retrieve %Inh measured for CSc1ccc(NC2=C(c3ccc(Cl)cc3)C(=O)NC2=O)cc1 and print it.
Marked response: 0

Exam item: Return reported %Inh. Input compound: CCNC(=O)/C=C/c1n[nH]c2cc(Sc3ccccc3C(=O)NC)ccc12
Marked response: 33

Exam item: Determine from records and report %Inh for CCn1c(-c2nonc2N)nc2c(-c3ccccc3)ncc(OCCCN)c21.O=C(O)C(F)(F)F.O=C(O)C(F)(F)F
Marked response: 29
